Target: Beta-1,3-glucan synthase (Candida albicans, UniProt O13428)
Sequence (O13428 whole entry): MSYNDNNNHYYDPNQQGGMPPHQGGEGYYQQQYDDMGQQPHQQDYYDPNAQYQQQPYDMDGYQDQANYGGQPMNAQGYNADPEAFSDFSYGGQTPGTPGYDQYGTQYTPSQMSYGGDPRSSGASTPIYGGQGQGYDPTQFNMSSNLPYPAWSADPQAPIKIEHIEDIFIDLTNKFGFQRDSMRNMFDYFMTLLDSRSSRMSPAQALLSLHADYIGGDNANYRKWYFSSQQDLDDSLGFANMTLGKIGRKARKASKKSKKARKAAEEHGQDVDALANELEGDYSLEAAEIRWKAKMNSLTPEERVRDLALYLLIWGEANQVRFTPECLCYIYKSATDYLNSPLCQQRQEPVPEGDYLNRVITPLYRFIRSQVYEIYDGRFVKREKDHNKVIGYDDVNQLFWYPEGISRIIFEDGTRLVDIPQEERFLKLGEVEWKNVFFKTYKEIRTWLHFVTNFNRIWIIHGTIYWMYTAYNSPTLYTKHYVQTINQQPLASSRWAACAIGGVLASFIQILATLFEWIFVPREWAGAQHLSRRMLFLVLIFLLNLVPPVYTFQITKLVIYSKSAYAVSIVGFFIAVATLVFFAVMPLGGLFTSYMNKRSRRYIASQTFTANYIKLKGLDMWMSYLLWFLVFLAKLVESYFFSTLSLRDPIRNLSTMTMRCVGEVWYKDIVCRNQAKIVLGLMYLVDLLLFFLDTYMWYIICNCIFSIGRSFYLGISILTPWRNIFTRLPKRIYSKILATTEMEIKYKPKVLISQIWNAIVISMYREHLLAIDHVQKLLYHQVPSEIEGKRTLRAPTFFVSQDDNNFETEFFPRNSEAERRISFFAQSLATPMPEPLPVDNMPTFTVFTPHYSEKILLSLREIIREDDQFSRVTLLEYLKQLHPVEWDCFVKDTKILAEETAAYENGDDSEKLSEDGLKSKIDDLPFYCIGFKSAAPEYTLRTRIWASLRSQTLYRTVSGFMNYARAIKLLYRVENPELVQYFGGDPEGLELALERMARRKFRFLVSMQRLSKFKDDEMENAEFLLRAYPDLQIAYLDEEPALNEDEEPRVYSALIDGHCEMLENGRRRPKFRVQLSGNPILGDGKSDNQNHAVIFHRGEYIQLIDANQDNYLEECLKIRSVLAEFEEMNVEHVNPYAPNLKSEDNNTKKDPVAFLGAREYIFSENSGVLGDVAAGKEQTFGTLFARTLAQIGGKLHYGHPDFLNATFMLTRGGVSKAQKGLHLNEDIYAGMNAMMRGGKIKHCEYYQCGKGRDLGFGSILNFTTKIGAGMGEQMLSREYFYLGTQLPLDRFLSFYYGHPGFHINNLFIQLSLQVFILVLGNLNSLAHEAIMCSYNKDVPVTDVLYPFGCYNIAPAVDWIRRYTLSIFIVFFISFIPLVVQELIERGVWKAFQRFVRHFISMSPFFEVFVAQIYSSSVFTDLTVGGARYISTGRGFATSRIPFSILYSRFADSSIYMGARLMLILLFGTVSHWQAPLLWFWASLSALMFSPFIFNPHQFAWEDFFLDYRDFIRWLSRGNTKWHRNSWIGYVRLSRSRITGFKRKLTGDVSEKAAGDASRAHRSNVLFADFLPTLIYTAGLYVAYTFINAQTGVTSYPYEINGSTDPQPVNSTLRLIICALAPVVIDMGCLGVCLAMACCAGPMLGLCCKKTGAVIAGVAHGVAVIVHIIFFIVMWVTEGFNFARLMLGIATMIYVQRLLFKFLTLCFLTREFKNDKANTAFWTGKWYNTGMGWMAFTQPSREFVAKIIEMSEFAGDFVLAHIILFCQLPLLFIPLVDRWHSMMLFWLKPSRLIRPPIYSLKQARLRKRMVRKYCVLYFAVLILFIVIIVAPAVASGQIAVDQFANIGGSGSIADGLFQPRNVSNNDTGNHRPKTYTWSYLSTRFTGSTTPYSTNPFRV
Numbered stars: 1 amine (or outer) side, 2 acyl side, 3 side chain; on linkers, the order of the positions; unused ones are H or OH. Bridge positions count the residues as written; N and C are the ends. Square brackets hold non-standard residues; d marks the D form. Peptide text beside a SMILES is read from it. Gln(3R-OH) = NC(=O)C[C@@H](O)[C@H](N)C(=O)O; X1 = CCCCCCCCCCCCC[C@H](CC(=O)[*:1])O[*:2]; Pro(3S-OH) = O=C(O)[C@H]1NCC[C@@H]1O; d(aThr) = C[C@@H](O)[C@@H](N)C(=O)O; Hyp = O=C(O)[C@@H]1C[C@@H](O)CN1; Orn = NCCC[C@H](N)C(=O)O
quantity_kind: pIC50
Numbers only, as −log10 of the molar value.

The compound CCCCCCCCCCCCC[C@@H]1CC(=O)N[C@H]([C@@H](C)O)C(=O)N[C@H](C)C(=O)N[C@@H](Cc2ccc(O)cc2)C(=O)N[C@@H](C(C)C)C(=O)N2C[C@H](O)C[C@H]2C(=O)N[C@H]([C@@H](C)O)C(=O)N[C@@H]([C@@H](C)O)C(=O)N2CC[C@H](O)[C@H]2C(=O)N[C@@H]([C@H](O)CC(N)=O)C(=O)NCC(=O)N[C@H]([C@@H](C)O)C(=O)N[C@@H](CCCN)C(=O)O1 [FR-901469] ([d(aThr)][dA]YV[Hyp][d(aThr)]T[Pro(3S-OH)][Gln(3R-OH)]G[d(aThr)][Orn]; linker N-C via X1) showed pIC50 equal to 8.07

* * *

Would you kindly list pIC50 for each of these compounds?
Target: Beta-1,3-glucan synthase (Candida albicans, UniProt O13428)
Test: In vitro inhibitory activity against Beta glucan synthase
One number for each entry, as −log10 of the molar value.

A selection of reference data follows.
molecule_smiles	pIC50
CCCCCCCCCCCCC[C@@H]1CC(=O)N[C@@H]([C@@H](C)O)C(=O)N[C@H](C)C(=O)N[C@@H](Cc2ccc(O)cc2)C(=O)N[C@@H](C(C)C)C(=O)N2C[C@H](O)C[C@H]2C(=O)N[C@@H]([C@@H](C)O)C(=O)N[C@@H]([C@@H](C)O)C(=O)N2CC[C@H](O)[C@H]2C(=O)N[C@@H]([C@H](O)CC(N)=O)C(=O)NCC(=O)N[C@@H]([C@@H](C)O)C(=O)N[C@@H](CCCNC(=O)[C@@H](CCCN)N(CCN)CCN)C(=O)O1	9.20
CCCCCCCCCCCCC[C@@H]1CC(=O)N[C@H]([C@@H](C)O)C(=O)N[C@H](C)C(=O)N[C@@H](Cc2ccc(O)cc2)C(=O)N[C@@H](C(C)C)C(=O)N2C[C@H](O)C[C@H]2C(=O)N[C@H]([C@@H](C)O)C(=O)N[C@@H]([C@@H](C)O)C(=O)N2CC[C@H](O)[C@H]2C(=O)N[C@@H]([C@H](O)CC(N)=O)C(=O)NCC(=O)N[C@H]([C@@H](C)O)C(=O)N[C@@H](CCCN(CCN)CCN)C(=O)O1	8.85
CCCCCCCCCCCCC[C@@H]1CC(=O)N[C@@H]([C@@H](C)O)C(=O)N[C@H](C)C(=O)N[C@@H](Cc2ccc(O)cc2)C(=O)N[C@@H](C(C)C)C(=O)N2C[C@H](O)C[C@H]2C(=O)N[C@@H]([C@@H](C)O)C(=O)N[C@@H]([C@@H](C)O)C(=O)N2CC[C@H](O)[C@H]2C(=O)N[C@@H]([C@H](O)CC(N)=O)C(=O)NCC(=O)N[C@@H]([C@@H](C)O)C(=O)N[C@@H](CCCN(CCCN)C(=O)[C@H](N)CCCN)C(=O)O1	9.08
CC[C@H](C)C[C@H](C)CCCCCCCCC(=O)N[C@H]1C[C@@H](O)[C@@H](NCCN)NC(=O)[C@@H]2[C@@H](O)CCN2C(=O)[C@H]([C@H](O)CCN)NC(=O)[C@H]([C@H](O)[C@@H](O)c2ccc(O)cc2)NC(=O)[C@@H]2C[C@@H](O)CN2C(=O)[C@H]([C@@H](C)O)NC1=O	8.89
CCCCCCCCCCCCC[C@@H]1CC(=O)N[C@@H]([C@@H](C)O)C(=O)N[C@H](C)C(=O)N[C@@H](Cc2ccc(O)cc2)C(=O)N[C@@H](C(C)C)C(=O)N2C[C@H](O)C[C@H]2C(=O)N[C@@H]([C@@H](C)O)C(=O)N[C@@H]([C@@H](C)O)C(=O)N2CC[C@H](O)[C@H]2C(=O)N[C@@H]([C@H](O)CC(N)=O)C(=O)NCC(=O)N[C@@H]([C@@H](C)O)C(=O)N[C@@H](CCCN(CCN)C(=O)[C@H](CCCN)N(CCN)CCN)C(=O)O1	9.70

Field: next compound
The compound CCCCCCCCCCCCC[C@@H]1CC(=O)N[C@@H]([C@@H](C)O)C(=O)N[C@H](C)C(=O)N[C@@H](Cc2ccc(O)cc2)C(=O)N[C@@H](C(C)C)C(=O)N2C[C@H](O)C[C@H]2C(=O)N[C@@H]([C@@H](C)O)C(=O)N[C@@H]([C@@H](C)O)C(=O)N2CC[C@H](O)[C@H]2C(=O)N[C@@H]([C@H](O)CC(N)=O)C(=O)NCC(=O)N[C@@H]([C@@H](C)O)C(=O)N[C@@H](CCCNC(=O)[C@H](CCCN)N(CCN)CCN)C(=O)O1 showed pIC50 equal to 9.05
